- System: CAMK1B
- Experimental Parameters: concentration: 1 μM, replicates: in singlicate; n = 1;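 note: KINOMEscan kinase panel screen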
Returns one of satisfied or not satisfied; satisfied when %Inh is >= 20%.

>  <Compound>
O=C(Nc1n[nH]c2nc(-c3ccccc3)ccc12)C1CC1 [SB-708999]

>  <Target Entity>
CAMK1B

>  <Category Label>
satisfied

$$$$
>  <Compound>
Nc1cccc(-c2ccc3c(N)n[nH]c3c2)c1 [GSK2193613]

>  <Target Entity>
CAMK1B

>  <Category Label>
satisfied

$$$$
>  <Compound>
Cc1ccc(O)cc1Nc1ccnc2ccc(C(C)(C)C)cc12 [GW856805]

>  <Target Entity>
CAMK1B

>  <Category Label>
satisfied

$$$$
>  <Compound>
CC(C)c1nc(-c2cccc(NS(=O)(=O)c3c(F)cccc3F)c2)c(-c2ccnc(Nc3ccc(N4CCOCC4)nc3)n2)s1.Cl [GSK1723980]

>  <Target Entity>
CAMK1B

>  <Category Label>
not satisfied

$$$$
>  <Compound>
CN(c1ccc(NC(=O)N2CCN(CCCN3CCOCC3)CC2)cc1)c1ccnc(Nc2ccc(CS(C)(=O)=O)cc2)n1.Cl [GW830899]

>  <Target Entity>
CAMK1B

>  <Category Label>
not satisfied

$$$$
>  <Compound>
COc1ccc(NC(=O)c2ccoc2)cc1-c1ccc(C(=O)NCC2CC2)cc1 [GW810437]

>  <Target Entity>
CAMK1B

>  <Category Label>
not satisfied

$$$$
>  <Compound>
CCn1c(-c2nonc2N)nc2c(-c3ccccc3)ncc(OCCCN)c21.O=C(O)C(F)(F)F.O=C(O)C(F)(F)F [GSK260205]

>  <Target Entity>
CAMK1B

>  <Category Label>
not satisfied

$$$$
>  <Compound>
CCOc1nccc(-c2c(-c3ccc(F)cc3)ncn2C2CCNCC2)n1 [SB-249175]

>  <Target Entity>
CAMK1B

>  <Category Label>
satisfied

$$$$

====

Listed molecules paired with reported %Inh
- System: BRSK2
- Experimental Parameters: concentration: 1 μM, replicates: in singlicate; n = 1
Quantity: %Inh (%)

>  <Molecule>
Cc1cccc(Nc2nc(N[C@H]3CCCC[C@H]3N)ncc2C(N)=O)c1.Cl

>  <Reported>
13

$$$$
>  <Molecule>
Fc1cc(Cl)ccc1Nc1ccnc2cc(-c3ccc(CN4CCOCC4)o3)ccc12

>  <Reported>
0

$$$$
>  <Molecule>
O=C(O)C(F)(F)F.O=c1[nH]ccc2nc(N[C@@H]3CCNC3)nc(Nc3cc(Cl)cc(Cl)c3)c12

>  <Reported>
8

$$$$
>  <Molecule>
CC(=O)Nc1cn2nc(Oc3cccc(NC(=O)c4cccc(C(F)(F)F)c4)c3)ccc2n1

>  <Reported>
0

$$$$
>  <Molecule>
Nc1ncc(-c2ccc3nccc(-c4ccncc4)c3c2)cc1S(=O)(=O)N1CCCCC1

>  <Reported>
0

$$$$
>  <Molecule>
CCNC(=O)/C=C/c1n[nH]c2cc(Sc3ccccc3C(=O)NC)ccc12

>  <Reported>
24

$$$$
>  <Molecule>
Cn1cc(-c2ccc3c(c2)CCN3C(=O)Cc2cc(F)cc(C(F)(F)F)c2)c2c(N)ncnc21

>  <Reported>
5

$$$$
>  <Molecule>
CCn1cnc2c(NCc3ccccc3)ncnc21

>  <Reported>
0

$$$$
>  <Molecule>
COC(=O)Nc1nc2ccc(Oc3ccc(CC(=O)Nc4cc(C(F)(F)F)ccc4F)cc3)cc2[nH]1

>  <Reported>
0

$$$$
>  <Molecule>
CN(c1ccc(F)c(NC(=O)c2cccc(OC(C)(C)C#N)c2Cl)c1)c1ccc2nc(NC(=O)C3CC3)sc2n1

>  <Reported>
0

$$$$
>  <Molecule>
O=C1NC(=O)C(c2ccccc2Cl)=C1Nc1cccc(Cl)c1

>  <Reported>
0

$$$$
>  <Molecule>
COc1cccc(NC(=O)NCCNc2ccnc(Nc3ccc(F)cc3)n2)c1

>  <Reported>
0

$$$$
>  <Molecule>
Cl.N#CCc1ccc(Nc2nccc(Nc3ccc(Oc4ccccc4)cc3)n2)cc1

>  <Reported>
0

$$$$
>  <Molecule>
Cc1ccc(O)cc1Nc1ccnc2cc(-c3ccc(CN4CCCCC4)o3)ccc12

>  <Reported>
0

$$$$
>  <Molecule>
CN(c1ccc(NC(=O)N2CCN(CCCN3CCOCC3)CC2)cc1)c1ccnc(Nc2ccc(CS(C)(=O)=O)cc2)n1.Cl

>  <Reported>
25

$$$$
>  <Molecule>
COc1cc(Nc2nccc(N3CCC(NC(=O)Nc4ccc5c(c4)OCO5)C3)n2)cc(OC)c1OC (centres unmarked)

>  <Reported>
0

$$$$
>  <Molecule>
Cc1ccc(-c2ccc3occ(-c4ccc(S(C)=O)cc4)c3c2)nn1 (centres unmarked)

>  <Reported>
0

$$$$
